Please go through the items and note down their normalized growth.
# Measurement notes: chemical genetic growth profiling, strain panel (AID 1159580);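 note: tested at 20 µM; growth read once vehicle control cultures reached saturation at 30 °C; 1 = growth at the plate median or of vehicle wells; lower values mean less growth of the strain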
# Test parameters: S. cerevisiae deletion strains, growth OD, locus YGL227W, strain vid30, stronger effect = lower value
Among all 5,500 compounds or so, about 2,000 (36%) were called active. About 18% were inconclusive and are not listed. The list shows a part of the results.
Give the figure by itself; no unit, no explanation.

Please report the recorded normalized growth for CC(=O)N[C@@H](CS)C(=O)O . 1

Please report the recorded normalized growth for CC(C)(C)CC(C)(C)c1ccc(O)c(Cc2ccc(Cl)cc2Cl)c1 . 1.02

Please report the recorded normalized growth for O=C1NC(=O)C(=O)C(=O)N1 . 0.975

Please report the recorded normalized growth for C=C1C(=O)OC2CC1C(OC(C)=O)C/C(C)=C/CC/C(C)=C/CC[C@]2(C)O (stereo partly specified) . 0.989

Please report the recorded normalized growth for OC(Cn1cncn1)(Cn1cncn1)c1ccc(F)cc1F . 1.01

Please report the recorded normalized growth for C#CCCCCCCCCCCCC(O)CC(O)COC(C)=O (stereo unspecified) . 0.72

Please report the recorded normalized growth for Cc1ccc(C)c(OCCCC(C)(C)C(=O)O)c1 . 0.984

Please report the recorded normalized growth for C=C1C(=O)O[C@@H]2C3O[C@]3(C)CC/C=C(\C)CC[C@@H]12 (stereo partly specified) . 0.999

Please report the recorded normalized growth for O=c1cc[nH]c(=S)[nH]1 . 1.01

Please report the recorded normalized growth for Cc1cc(-c2ccccc2)nnc1NCCN1CCOCC1 . 0.987

Please report the recorded normalized growth for COC(=O)C[C@H]1C(C)(C)C(=O)[C@@H]2CC3=C(CC[C@]4(C)C3=CC(=O)O[C@H]4c3ccoc3)[C@@]1(C)C2=O . 0.976

====

Please go through the items and note down their normalized growth.
# Measurement notes: chemical genetic growth profiling, strain panel (AID 1159580);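 note: tested at 20 µM; growth read once vehicle control cultures reached saturation at 30 °C; 1 = growth at the plate median or of vehicle wells; lower values mean less growth of the strain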
# Test parameters: S. cerevisiae deletion strains, growth OD, locus YNL233W, strain BNI4, stronger effect = lower value
Screen size: about 5,500 compounds; about 2,000 (36%) were called active. About 18% were inconclusive and are not listed. Some of the results follow.
Give the figure by itself; no unit, no explanation.

Please report the recorded normalized growth for COc1cc2occ(-c3ccccc3)c(=O)c2c(OC)c1C . 0.908

Please report the recorded normalized growth for C=C1CCC(=O)C(C)CCC2C1CC2(C)C (stereo not given) . 1.03

Please report the recorded normalized growth for CC(C)C(C)/C=C/C(C)C1CCC2C3=CC=C4CC(O)CCC4(C)C3CCC21C (stereo not given) . 0.887

Please report the recorded normalized growth for COc1cc(-c2coc3cc(OC)c(OC)c(OC)c3c2=O)cc(OC)c1OC . 0.982

Please report the recorded normalized growth for COc1cc(-c2coc3cc(OCc4ccccc4)c(OC)c(O)c3c2=O)cc(OCc2ccccc2)c1OC . 0.977

Please report the recorded normalized growth for CC1=CC2C(CC1=O)C(C)=CCC2C(C)C (stereo not given) . 0.874

Please report the recorded normalized growth for COc1ccc(CCN2CCC(Nc3nc4ccccc4n3Cc3ccc(F)cc3)CC2)cc1 . 0.959

Please report the recorded normalized growth for CC(C)[C@@H]1CC[C@@H](C)C[C@H]1O . 0.988

Please report the recorded normalized growth for Cc1cc(-c2ccccc2)nnc1NCCN1CCOCC1 . 1.01

Please report the recorded normalized growth for CC(C)NNC(=O)c1ccncc1 . 1.01

The measurements presented in this section are drawn from PubChem BioAssay AID1159580.
